experiment: Lipophilicity, LogD of compound by reverse phase HPLC analysis
observed.property: chromatographic logD
Form field (numeric): enter value without unit.

### Prompt Entry CN1CCC(Nc2nccc(-c3sc(C4CCNCC4)nc3-c3ccc(F)cc3)n2)C1 (centres undefined) has what chromatographic logD?
### Response 1.14

### Prompt Try Fc1ccc(-c2nc(C3CCNCC3)sc2-c2ccnc(N3CCC(N4CCOCC4)CC3)n2)cc1 next.
### Response 2.83

### Prompt Try Fc1ccc(-c2nc(C3CCNCC3)sc2-c2ccnc(Nc3ccccn3)n2)cc1 next.
### Response 2.96

### Prompt Try Fc1ccc(-c2nc(C3CCNCC3)sc2-c2ccnc(N3CCC(N4CCC4)CC3)n2)cc1 next.
### Response 1.63

### Prompt Try O=S(=O)(Nc1nc(-c2ccc(F)cc2)c(-c2ccnc(Nc3ccc(N4CCNCC4)cc3)n2)s1)C1CCNCC1 next.
### Response 1.34

### Prompt Try c1cc(Nc2nccc(-c3sc(C4CCNCC4)nc3C3CC3)n2)ncn1 next.
### Response 1.71

### Prompt Try Fc1ccc(-c2nc(C3CCNCC3)sc2-c2ccnc(N3CCC(CN4CCOCC4)CC3)n2)cc1 next.
### Response 3.75

### Prompt Try CN(C)C(CNc1nccc(-c2sc(C3CCNCC3)nc2-c2ccc(F)cc2)n1)C1CC1 (centres undefined) next.
### Response 1.68

### Prompt Try Fc1ccc(-c2nc(C3CCNCC3)oc2-c2ccnc(Nc3ccncn3)n2)cc1 next.
### Response 1.79

### Prompt Try Nc1nc(-c2ccc(F)cc2)c(-c2ccnc(Nc3ccc(N4CCOCC4)cc3)n2)s1 next.
### Response 4.61

### Prompt Try CCOC(=O)N1CCC(c2nc(-c3ccc(F)cc3)c(-c3ccnc(Nc4ccc(N5CCN(C)CC5)cc4)n3)s2)CC1 next.
### Response 6.66

### Prompt Try Fc1ccc(-c2nc(N3CCOCC3)sc2-c2ccnc(Nc3ccc(N4CCNCC4)cc3)n2)cc1 next.
### Response 3.99

### Prompt Try CN1CCN(c2ccc(Nc3nccc(-c4sc(C5CCNCC5)nc4-c4ccc(F)cc4)n3)cc2)CC1 next.
### Response 2.79

### Prompt Try Cc1cc(Nc2nccc(-c3sc(C4CCNCC4)nc3-c3ccc(F)cc3)n2)on1 next.
### Response 2.61

### Prompt Try Fc1ccc(-c2nc(C3CCNCC3)sc2-c2ccnc(N3CCCC3)n2)cc1 next.
### Response 3.71

### Prompt Try OC1CCN(c2nccc(-c3sc(C4CCNCC4)nc3-c3ccc(F)cc3)n2)C1 (centres undefined) next.
### Response 1.92

### Prompt Try Cc1nc(Nc2nccc(-c3sc(C4CCNCC4)nc3-c3ccc(F)cc3)n2)cc(C2CCC2)c1F next.
### Response 5.52

### Prompt Try Fc1ccc(-c2nc(C3CCNCC3)sc2-c2ccnc(Nc3nncs3)n2)cc1 next.
### Response 1.82

### Prompt Try CN1CCC(c2nc(-c3ccc(F)c(NS(C)(=O)=O)c3)c(-c3ccnc(NCC4CC4)n3)s2)CC1 next.
### Response 3.2

The values you see were collected from ChEMBL document CHEMBL4414601.
